Tested on: MS2 coat protein
ASSAY_PROTOCOL: apparent KD of MS2 coat protein; higher = weaker reporter binding
CONDITIONS_USED: Eterna round: R107; input ligand: theophylline 20 uM
MEASURED_PARAMETER: apparent KD of MS2 coat protein (nM)
The response must be a number in nM with no trailing unit.

Recorded results for 3 sequences are shown here.
[
  {
    "SEQUENCE_ENTRY": "UAUCGUCAGACGGCCGCCACUAGAACAUGAGGAUCACCCAUGUAGGCGGCCGAUUCCUCAUUAACUAGGACCGGGUCUGACGAAU [(Trp1)-(Ms2)-(T)'-(M)'-(Trp2)_Design11]",
    "apparent KD of MS2 coat protein / nM": 15.9
  },
  {
    "SEQUENCE_ENTRY": "UUUAACGGGCACGAUACCAGCGACAUGAGGAUCACCCAUGUAAACGCGGUGACGGUCUGUUGCCCUUGGCAGCGUGCAAAAUAAU [Zaquarar]",
    "apparent KD of MS2 coat protein / nM": 157
  },
  {
    "SEQUENCE_ENTRY": "UCGUGUAUAUCGGAUACCAGUGAAAACGAUACAUGAGGAUCACCCAUGUGAGUUGAUGUACACCCUUGGCAGCUGUAUAUAUCUA [fokullin]",
    "apparent KD of MS2 coat protein / nM": 22.7
  }
]

Incoming: Need apparent KD of MS2 coat protein of UGGUUUGUGAUGGAUACCAGCAGAGAAAACGUUUAUCCUAACAUGAGGAUCACCCAUGUAUGCCCUUGGCAGCUGUUGUGGGCUA [8.S] , thanks.
Outgoing: 37.4
